Tested on: H9c2 cardiomyocytes, 2-deoxyglucose stress, ATP luminescence, 2 h
EXPERIMENT: H9c2 cell survival under 2-deoxyglucose stress – uHTS hits, dose response (AID 588780)
Activity calls are given as the source filed them.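 Rule for the calls: active = compounds whose fitted half-maximal concentration in the cell-protection dose series is at or below a set limit; inactive = the rest.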
Returns: one label drawn from active, inactive

Worked examples follow.
# COMPOUND, ASSIGNED LABEL
rows = [
    ("Cn1c(=O)c2c(nc(NCCCO)n2C/C=C/c2ccccc2)n(C)c1=O", "inactive"),
    ("O=Cc1ccc(OCc2cccc(C(F)(F)F)c2)cc1O", "active"),
    ("O=C(CC(C(=O)c1ccccc1)c1ccccc1)c1ccccc1 (configuration not stated)", "active"),
    ("Cn1ncc(Cl)c1C(=O)N/N=C/c1ccccn1", "inactive"),
    ("NC(=O)c1nsc(C(=O)N(c2ccccc2)C(C(=O)NCc2ccc(F)cc2)c2ccc(O)cc2)c1N (configuration not stated)", "inactive"),
]

Then there is this compound:
Which outcome was entered for the compound O=C(CSc1nnc(-c2ccccc2)n1Cc1ccccc1)NNC(=O)c1ccccc1O in this test?
inactive

###

Tested on: H9c2 cardiomyocytes, 2-deoxyglucose stress, ATP luminescence, 2 h
EXPERIMENT: H9c2 cell survival under 2-deoxyglucose stress – uHTS hits, dose response (AID 588780)
Activity calls are given as the source filed them.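 Rule for the calls: active = compounds whose fitted half-maximal concentration in the cell-protection dose series is at or below a set limit; inactive = the rest.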
Returns: one label drawn from true (active), false (inactive)

Worked examples follow.
# COMPOUND, ASSAY SYSTEM, ASSIGNED LABEL
records = [
    ("Cc1ccc(NC(=O)c2nc[nH]c2C(=O)NCCCCCCNC(=O)c2[nH]cnc2C(=O)Nc2ccc(C)cc2)cc1", "H9c2 cardiomyocytes, 2-deoxyglucose stress, ATP luminescence, 2 h", "false"),
    ("Cc1cccc(C)c1OCCn1nc(C(=O)O)c2ccccc2c1=O", "H9c2 cardiomyocytes, 2-deoxyglucose stress, ATP luminescence, 2 h", "true"),
    ("O=c1c2ccccc2nc2c3ccccc3c(NCCO)nn12", "H9c2 cardiomyocytes, 2-deoxyglucose stress, ATP luminescence, 2 h", "false"),
    ("O=C(NC(O)C(=O)c1cccs1)c1cccnc1 (configuration not stated)", "H9c2 cardiomyocytes, 2-deoxyglucose stress, ATP luminescence, 2 h", "false"),
    ("O=C(CSc1nc2ccccc2c(=O)[nH]1)N1CCOCC1", "H9c2 cardiomyocytes, 2-deoxyglucose stress, ATP luminescence, 2 h", "false"),
    ("COc1ccccc1-c1cc(C(=O)N/N=C/C=C/c2ccccc2[N+](=O)[O-])c2ccccc2n1", "H9c2 cardiomyocytes, 2-deoxyglucose stress, ATP luminescence, 2 h", "false"),
]

Which outcome was entered for the compound COc1ccc(CSc2nc3ccccc3c(=O)[nH]2)cc1F in this test?
false

Which outcome was entered for the compound CCCCn1nc(NC(=O)c2cccs2)c2cc3ccccc3nc21 in this test?
true

Which outcome was entered for the compound COC(=O)c1cc(NC(=O)Nc2cc(OC)ccc2OC)cc(C(=O)OC)c1 in this test?
false

Which outcome was entered for the compound COc1ccc2c(c1OC)c(=O)n1c3ccc(OC(C)C(=O)NCCN4CCOCC4)cc3c3ccnc2c31 (configuration not stated) in this test?
true

Which outcome was entered for the compound CCN1CCN(c2nc3c(c(=O)[nH]2)CCCC3)CC1 in this test?
false

Which outcome was entered for the compound O=C(Oc1ccc2c(-c3ccccc3)cc(=O)oc2c1)C1CCCCC1 in this test?
false

Which outcome was entered for the compound CCOC(=O)c1cc(-c2nnc(-c3cc(OC)c(OC)c(OC)c3)o2)c(C)nc1C in this test?
false

Which outcome was entered for the compound O=C(CCc1nc2ccccc2c(=O)[nH]1)OCc1nnc(-c2ccccc2)o1 in this test?
false

Which outcome was entered for the compound O=c1c2ccccc2nc(-c2ccc(Cl)c(Cl)c2)n1O in this test?
true

Which outcome was entered for the compound COc1ccc2c(c1)C(=O)[C@@H](O)[C@H](c1ccc(OC)c(Br)c1)O2 in this test?
true

Which outcome was entered for the compound COc1cccc(-c2nn(-c3ccccc3)cc2C(=O)Nc2nccs2)c1 in this test?
false

Which outcome was entered for the compound CCc1c(C)nc(Nc2nc(C)c3ccc(OC)cc3n2)[nH]c1=O in this test?
false

Which outcome was entered for the compound Cn1c(C(=O)Nc2ccc3c(c2)OCCO3)cc2c(=O)n(C)c3ccccc3c21 in this test?
false

Which outcome was entered for the compound Cc1cccc(/N=C/c2c(O)ccc3oc4c(c23)CCCC4)n1 in this test?
false

Which outcome was entered for the compound O=C(CNC(=O)c1[nH]cnc1C(=O)NC(c1ccccc1)c1ccccc1)OCc1ccccc1 in this test?
true

###

System: H9c2 cardiomyocytes, 2-deoxyglucose stress, ATP luminescence, 2 h
EXPERIMENT: H9c2 cell survival under 2-deoxyglucose stress – uHTS hits, dose response (AID 588780)
Calls of active or inactive are those of the source.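 Rule for the calls: active = compounds whose fitted half-maximal concentration in the cell-protection dose series is at or below a set limit; inactive = the rest.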
Returns: one label drawn from 1 = active, 0 = inactive

Worked examples follow.
# MOLECULE, ASSAY SYSTEM, ASSIGNED LABEL
data = [
    ("O=c1[nH]c2cc(F)ccc2c2ccc(F)cc12", "H9c2 cardiomyocytes, 2-deoxyglucose stress, ATP luminescence, 2 h", 0),
    ("CC(C)OCCCNC(=O)CCC(=O)NNc1nc2ccccc2c2nc(-c3ccccc3)nn12", "H9c2 cardiomyocytes, 2-deoxyglucose stress, ATP luminescence, 2 h", 0),
]

Then there is this molecule:
Which outcome was entered for the molecule CCCCn1c(N)c(Br)c(=O)[nH]c1=O in this test?
0

###

Test system: H9c2 cardiomyocytes, 2-deoxyglucose stress, ATP luminescence, 2 h
EXPERIMENT: H9c2 cell survival under 2-deoxyglucose stress – uHTS hits, dose response (AID 588780)
Activity calls are given as the source filed them.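 Rule for the calls: active = compounds whose fitted half-maximal concentration in the cell-protection dose series is at or below a set limit; inactive = the rest.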
Returns: one label drawn from yes (active), no (inactive)

Worked examples follow.
# STRUCTURE SMILES, ASSIGNED LABEL
records = [
    ("Cn1c(=O)c2c(nc(NCc3cccnc3)n2Cc2cccc(C(F)(F)F)c2)n(C)c1=O", "no"),
    ("COc1ccc(-c2cc3nc(-c4ccccc4)cc(N4CCN(C(C)=O)CC4)n3n2)cc1", "yes"),
    ("COc1cc(NC(=O)c2c(OC)cccc2OC)ccc1NC(=O)c1cc2ccccc2o1", "yes"),
    ("COc1cccc(-c2nn3c(-c4ccco4)nnc3s2)c1", "no"),
    ("O=C(CCc1nc2ccccc2c(=O)[nH]1)Nc1nc(-c2cccs2)cs1", "no"),
]

Then there is this molecule:
Which outcome was entered for the molecule Cc1ccc(OCC(=O)N/N=C/c2cccc3cccnc23)cc1 in this test?
no

###

IC50 values by entry
System: H9c2 cardiomyocytes, 2-deoxyglucose stress, ATP luminescence, 2 h
EXPERIMENT: H9c2 cell survival under 2-deoxyglucose stress – uHTS hits, dose response (AID 588780)
Activity calls are given as the source filed them.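 Rule for the calls: active = compounds whose fitted half-maximal concentration in the cell-protection dose series is at or below a set limit; inactive = the rest.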

Recorded results for 10 compounds are shown here.
# COMPOUND, OBS VALUE
rows = [
    ("CC(C)(C)c1nn(-c2ccccc2)c2[nH]c(=O)c(CNCc3ccco3)cc12", "40.3 µM (inactive)"),
    ("O=C(COc1cccc(F)c1)Nc1nc(-c2ccccn2)cs1", "30.9 µM (inactive)"),
    ("Cc1ccc(-c2[nH]c3cc(C(N)=O)ccc3c(=O)c2O)cc1", "> 79 µM (inactive)"),
    ("COc1cc(-c2nnc(COC(=O)c3cc(C)nc4ccc(C)cc34)o2)cc(OC)c1OC", "15.6 µM"),
    ("CCOC(=O)c1c(C)[nH]c(C)c1C(=O)COc1ncnc2cc([N+](=O)[O-])ccc12", "14.6 µM"),
    ("O=C(CCc1nc2ccccc2c(=O)[nH]1)NNC(=O)c1ccccc1Cl", "> 79 µM (inactive)"),
    ("Cc1cccc(OCCn2c(NC(=O)c3ccco3)nc3ccccc32)c1", "17.8 µM"),
    ("Cc1ccc(C(=O)Nc2cccc(C(F)(F)F)c2)cc1NC(=O)c1csc(-c2ccncc2)n1", "> 79 µM (inactive)"),
    ("O=c1[nH]nc(-c2cccs2)c2ccccc12", "5.51 µM"),
    ("CCOC(=O)c1cnc(Nc2nc3ccccc3o2)nc1CSc1nnc(C)s1", "> 79 µM (inactive)"),
]

Query: IC50; subject: Cc1ncc(CO)c2c1Oc1nc(-c3ccccc3)nc(SCC(=O)N3CCCCC3)c1C2
> 79 µM (inactive)

Query: IC50; subject: COc1ccc(NCc2n[nH]c(=O)c3ccccc23)cc1
> 79 µM (inactive)

Query: IC50; subject: N#CCSc1nc2cc(C(=O)N3CCC(C(N)=O)CC3)ccc2c2nc3ccccc3n12
15 µM

Query: IC50; subject: COc1ccc2occ(C(=O)c3coc4ccc(O)c(CN(C)C)c34)c2c1
> 79 µM (inactive)

Query: IC50; subject: CC1(NC(=O)CCc2nc3ccccc3c(=O)[nH]2)CCS(=O)(=O)C1 (stereo unspecified)
> 79 µM (inactive)

Query: IC50; subject: COc1ccc(C(=O)COC(=O)Cn2[nH]c(=O)c3ccccc3c2=O)c(OC)c1
> 79 µM (inactive)

Query: IC50; subject: CC(C)CC(=O)Nc1ccc(C(=O)COC(=O)Cc2n[nH]c(=O)c3ccccc23)cc1
> 79 µM (inactive)

Query: IC50; subject: O=CNc1cc(-c2ccc(C(=O)NC3CC3)cc2)cn2c(-c3ccc(F)c(Cl)c3)cnc12
> 79 µM (inactive)

Query: IC50; subject: CC(=O)c1cccc(NC(=O)C(C)OC(=O)Cc2n[nH]c(=O)c3ccccc23)c1 (stereo unspecified)
> 79 µM (inactive)

Query: IC50; subject: Cc1c(C2Nc3ccccc3C(=O)N2O)cnn1C (stereo unspecified)
14.6 µM
